Target: plasma purified human AT-III (antithrombin III)
Test: AT-III/UFH inhibition K0.5, ratio to Catalyst Biosciences WT FIXa
MEASURED_PARAMETER: K0.5-mut/K0.5-wt

Prompt line: Consider the protein shown here: FIXa-Y155F/K247N/N249S/R318Y/R338E/R403E/E410N (protein) chain 1: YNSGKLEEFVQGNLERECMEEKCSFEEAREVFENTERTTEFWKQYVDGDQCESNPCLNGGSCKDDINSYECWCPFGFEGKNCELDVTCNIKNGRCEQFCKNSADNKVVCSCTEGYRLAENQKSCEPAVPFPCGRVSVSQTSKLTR chain 2: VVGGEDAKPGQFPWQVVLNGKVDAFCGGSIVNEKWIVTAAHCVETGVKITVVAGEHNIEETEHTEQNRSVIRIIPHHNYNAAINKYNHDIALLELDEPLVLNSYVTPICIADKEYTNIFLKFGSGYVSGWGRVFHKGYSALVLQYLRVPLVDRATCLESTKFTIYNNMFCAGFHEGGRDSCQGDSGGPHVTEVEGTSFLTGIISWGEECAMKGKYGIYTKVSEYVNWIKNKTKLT What is its recorded K0.5-mut/K0.5-wt?
Response line: > 517

The reported numbers originate from patent US20210238260.
